Each recorded value in this set is attributed to patent US11591334B2.

# target_entity: C150 protein (Hepatitis B virus genotype D subtype adw, UniProt P03147, C107A/C48A/C61A/R150C)
# Construct: purchased WuXi Apptec Co., Ltd
# Sequence (P03147 1-150 C48A/C61A/C107A/R150C): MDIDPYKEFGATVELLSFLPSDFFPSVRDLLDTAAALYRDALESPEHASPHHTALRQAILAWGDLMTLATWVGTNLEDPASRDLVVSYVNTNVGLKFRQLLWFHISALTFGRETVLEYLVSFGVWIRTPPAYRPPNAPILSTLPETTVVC
# experimental_protocol: In vitro anti-HBV nucleocapsid assembly activity test (Experiment 1, protein experiment)
# Assay type: biochemical
# condition: fluorescently labeled C150 (C150Bo) 1.5 μM, 150 mM NaCl, 1 hour at room temperature; read-out: Experiment 1 Protein experiment IC50
pIC50: −log10 of the molar value.
Can you tell me pIC50 for the items I'm about to list?

Here is how some compounds turned out for pIC50.
compound	pIC50
CC(NS(=O)(=O)c1c(Cl)c(C(=O)Nc2ccnc(C(F)F)c2)n2c1C=CC2)C(F)(F)F (stereo not shown) [Compound 10d]	4.00 to 6.00
C[C@@H](NS(=O)(=O)Nc1c(Cl)c(C(=O)Nc2ccc(F)c(F)c2)n2c1CCC2)C(F)(F)F [Compound 90a]	4.00 to 6.00
C[C@@H](NS(=O)(=O)c1c(Cl)c(C(=O)Nc2ccc(F)c(F)c2)n2c1CCCCC2)C(F)(F)F [Compound 60a]	< 4.00
CC(NS(=O)(=O)c1c(Cl)c(C(=O)Nc2ccc(F)c(F)c2)n2c1CCC2)C(F)(F)F (stereo not shown) [Compound 20a]	4.00 to 6.00
CC(CO)NS(=O)(=O)c1c(Cl)c(C(=O)Nc2cc(F)nc(C#N)c2)n2c1CCC2 (stereo not shown) [Compound 20ff]	4.00 to 6.00

Parameters: items (list). Returns: pIC50 for each item.
1. O=C(Nc1ccc(F)c(F)c1)c1c(Cl)c(S(=O)(=O)NC2C3CCC2CC(O)(c2cc(-c4ccccc4)on2)C3)c2n1CC=C2 (stereo not shown) [Compound 10oo]
2. C[C@@H](NS(=O)(=O)c1c(Cl)c(C(=O)Nc2ccc(F)c(F)c2)n2c1CCCC2)C(F)(F)F [Compound 40a]

Result:
1. 4.00 to 6.00
2. > 6.00

----------
# target_entity: C150 protein (Hepatitis B virus genotype D subtype adw, UniProt P03147, C107A/C48A/C61A/R150C)
# Construct: purchased WuXi Apptec Co., Ltd
# experimental_protocol: In vitro anti-HBV nucleocapsid assembly activity test (Experiment 1, protein experiment)
# Format: biochemical
# condition: fluorescently labeled C150 (C150Bo) 1.5 μM, 150 mM NaCl, 1 hour at room temperature; read-out: Experiment 1 Protein experiment IC50
pIC50: −log10 of the molar value.
measurement_type: pIC50

Here is how some compounds turned out for pIC50.
compound	obs_value
Cn1c(C(=O)Nc2cc(F)nc(C#N)c2)c2cc[nH]c2c1S(=O)(=O)NC1(C)COC1 [Compound 80f]	4.00 to 6.00
O=C(Nc1ccc(F)c(F)c1)c1c(Cl)c(S(=O)(=O)NC2C3CCC2CC(O)(CO)C3)c2n1CCC2 (stereo not shown) [Compound 20kk]	4.00 to 6.00
Cc1c(S(=O)(=O)NC2(C)COC2)c2n(c1C(=O)Nc1ccnc(C(F)F)c1)CC=C2 [Compound 10aa]	4.00 to 6.00

Parameters: items (list). Returns: pIC50 for each item.
1. CC(NS(=O)(=O)c1c2[nH]ccc2c(C(=O)Nc2ccc(F)c(C#N)c2)n1C)C(F)(F)F (stereo not shown) [Compound 80b]
2. CC(NS(=O)(=O)c1c(Cl)c(C(=O)Nc2cc(F)nc(C#N)c2)n2c1CCCC2)C(F)(F)F (stereo not shown) [Compound 40d]

Result:
1. 4.00 to 6.00
2. 4.00 to 6.00

Parameters: items (list). Returns: pIC50 for each item.
1. CC(NS(=O)(=O)c1c2ncccc2c(C(=O)Nc2ccc(F)c(C#N)c2)n1C)C(F)(F)F (stereo not shown) [Compound 70b]
2. Cc1c(S(=O)(=O)NC(C)C(F)(F)F)c2n(c1C(=O)Nc1ccc(F)c(F)c1)CC=C2 (stereo not shown) [Compound 10g]

Result:
< 4.00
4.00 to 6.00
